The origin of these recorded values is ChEMBL document CHEMBL6092143.

TEST PROTOCOL: Antioxidant activity assessed as trolox equivalent of ORAC radical scavenging activity incubated for 15 mins by fluorescence based assay
Assay type: functional
So I've got a bunch of molecules here, and I need their Activity values.
Give bare numbers.

>>> test_result("COc1cc2c(cc1O)C(=O)C(CC1CCN(Cc3ccccc3)CC1)C2 (centres undefined)")
9.4
>>> test_result("O=c1c(O)c(-c2ccc(O)c(O)c2)oc2cc(O)cc(O)c12 [QUERCETIN]")
4
>>> test_result("COc1cc2c(cc1O)CC(CC1CCN(Cc3ccccc3)CC1)C2=O (centres undefined)")
2.1

// for each molecule below, give its Activity
1. Cc1c(C)c2c(c(C)c1O)CC[C@@](C)(CCC[C@H](C)CCC[C@H](C)CCCC(C)C)O2 [ALPHA-TOCOPHEROL]
2. O=C1c2cc(O)c(O)cc2CC1CC1CCN(Cc2ccccc2)CC1 (centres undefined)

Key:
1. 1
2. 2.2
